Every entry's value here was drawn from patent US9168295B2.

System: peripheral blood basophils (PBMC) from cat allergic subjects
ASSAY PROTOCOL: Histamine release assay and histamine ELISA
Type: cell-based, human
TEST CONDITIONS: of 81 subjects
Method: Histamine release from fresh peripheral whole blood from cat allergic subjects was evaluated. Peripheral blood basophils were used as a surrogate for tissue mast cells which were not practical to assay. […] Additionally, responses to a preferred mixtures of a mixture of 7 peptides identified in Example 1 were analysed. […] Assays were performed on PBMC (which contain basophils). […] Histamine concentrations were measured by ELISA. […]
No end group written: not given here.
OBSERVABLE: number of individuals in whom histamine release was detected
Answers are plain numbers.

AVQNTVEDLKLNTLGR [MLA16, AVQNTVEDLKLNTLGR]	11
KALPVVLENARILKNCV [MLA04, KALPVVLENARILKNCV]	6
ISSSKDCMGEAVQNTV [MLA15, ISSSKDCMGEAVQNTV]	7

For every record below, what is its number of individuals in whom histamine release was detected?
1. SRVLDGLVMTTISSSK [MLA14, SRVLDGLVMTTISSSK]
2. TAMKKIQDCYVENGLI [MLA12, TAMKKIQDCYVENGLI]

Reply:
[2, 6]
